# pIC50 annotations
target: mutEGFR (D770_N771insSVD) (Homo sapiens, UniProt P00533, DUP768-770); construct: GST-EGFR #3 (SVD between D770 and N771); made in house; host or cells: Sf9 insect cells (baculovirus); experiment: Exon20-Mutant-EGFR (D770_N771insSVD) kinase assay (TR-FRET); type: biochemical; conditions: mutEGFR (D770_N771insSVD) kinase assay IC50, Table 2a; D770_N771insSVD; 2 mM ATP
Sequence (P00533 with tags, fused parts or gaps DUP768-770): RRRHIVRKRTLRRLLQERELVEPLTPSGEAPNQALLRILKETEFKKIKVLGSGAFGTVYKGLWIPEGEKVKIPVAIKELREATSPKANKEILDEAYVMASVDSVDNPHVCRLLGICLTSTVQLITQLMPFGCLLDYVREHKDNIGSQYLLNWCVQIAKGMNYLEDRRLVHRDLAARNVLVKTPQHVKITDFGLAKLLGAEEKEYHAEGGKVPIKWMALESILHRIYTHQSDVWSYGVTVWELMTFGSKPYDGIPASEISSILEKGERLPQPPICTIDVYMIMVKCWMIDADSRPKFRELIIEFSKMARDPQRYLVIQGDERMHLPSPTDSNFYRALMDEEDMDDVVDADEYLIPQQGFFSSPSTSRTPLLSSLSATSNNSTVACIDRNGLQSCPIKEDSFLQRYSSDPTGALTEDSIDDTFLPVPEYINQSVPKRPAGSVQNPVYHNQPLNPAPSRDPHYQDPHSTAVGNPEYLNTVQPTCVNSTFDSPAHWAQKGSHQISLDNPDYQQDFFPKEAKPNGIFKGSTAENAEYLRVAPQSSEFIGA
Expect pIC50 as a plain number equal to -log10 of the molar concentration.

Give me measured pIC50, please, for this compound: O=C(/C=C/CN1CCCC1)N1CCn2nc(-c3ccc(F)cc3)c(-c3ccncc3)c2C1
8.83

Please report the measured pIC50 for CC1Cn2nc(-c3ccc(Cl)cc3F)c(-c3ccncc3)c2CN1C(=O)/C=C/CN(C)C (racemic)
9.74

Answer with the recorded pIC50 for the compound listed here: C=CC(=O)N1CCn2nc(-c3ccc4ccccc4c3F)c(-c3ccncc3)c2C1
9.89

Supply recorded pIC50 for C=CC(=O)N1CCn2nc(-c3cccc(F)c3)c(-c3ccncc3)c2C1 here.
8.84

Consider the compound NCC#CC(=O)N1CCn2nc(-c3ccc(F)cc3)c(-c3ccncc3)c2C1 and give its recorded pIC50.
7.58

Continuing:
Look up pIC50 of CC1c2c(-c3ccnc4[nH]ccc34)c(-c3ccc(C(F)(F)F)cc3)nn2CCN1C(=O)/C=C/CN(C)C (single isomer, unassigned; isomer 2) [Example 252] and report it.
7.93

Input C=CC(=O)N1CCn2nc(-c3ccc(F)cc3)c(-c3ccncc3OC)c2C1 , output reported pIC50.
7.43

Quote pIC50 reported for Cc1c[nH]c2nccc(-c3c(-c4cccc(Cl)c4)nn4c3CN(C(=O)/C=C/CN(C)C)CC4)c12 please.
6.81
